Provenance of the data: the nanobody polyreactivity screen of Harvey et al. (2022)

Experiment Notes: yeast display, Sf9 membrane polyspecificity reagent, FACS + sequencing; frameworks hold sequencing errors
Assay Metric: polyreactivity (PSR sort gate)

Residue Codes	Result
QVQLVESGGGLVQAGGSLRLSCAASGRIFYWYAMAWYRQAPGKERELVAAITSGGSTYYADSVKGRFTISRDNAKNTVYLQMNSLKPEDTAVYYCAADLYYWGDYDYWGQGTQVTVSS	low polyreactivity
QVQLVESGGGIVQAGGSLSLSCAASGSTFYSYDMVWYRPAPGKERELVAAISWEGGRPYYADSVKGRFTISRDNAKNNVYLQMNSLKPEDTAVYYCADAYPTYRHYYWGQGTQVSVSS	low polyreactivity
QVQLVESGGGLVQAGGSLRLSSAASGSTFYYYAMGWYRQAPGKERELVATISRSTARTFYADSVKGRFTISRDNEKNTVYLQMNSLKPEDTAVYYCAATSYVSVYPSYYRFGTYGYWGQGTQVTVSS	high polyreactivity
QVQLVESGGGLVQAGGSLRLSCAASGRIVSVNAMGWYRQAPGKERVLVAAITSGGRTNYADSVKGRFTISRDNAKNTVYLQMNSLNPEDTAVYFCAAPYLKGGEDEYWGQGTQVTVSS	high polyreactivity
QVQLVESGGGLVQAGGSLRLSCAASGRIFVYYTMGWYRQAPGKERELVAAITGSGGSTYYADSVKGRFTISRDNAKNTVYLQMNSLKPEDTAVYYCAARYASTGGGYKYYYWGQGTQVTVSS	high polyreactivity

Determine its reported polyreactivity (PSR sort gate): `QVHLVESGGGLVQAGGSLRLSCAASGRIFDYNTMGWYRQAPGKERELVAAITGGTGSTYYADSVKGRFTISRDNAKNTVYLQMNSLKPEDTAVYYCAAGFHKRVTPEILYDYWGQGTQLTVSS` low polyreactivity

Determine its reported polyreactivity (PSR sort gate): `QVQLVESGGGLVQAGGSLRLSCAASGFTFNRYAMAWDRQAPGKERELVATITSGGNTYYADSVKGRFTIARDNAKNTVYLQMNSLKPEDTAVYYCNQLGWYSVYRRDYWGQGTQVTVSS` high polyreactivity

Determine its reported polyreactivity (PSR sort gate): `QVQLVESGGGLVQAGGSLRLSCAASGFIFHYYAMGWYRQAPGKERELVAAISSGGGRTYYADSVKGRFTISRDNAKNTVYLLMNSLKPEDTAVYYCAARYAVNAWGGRRDYWGQGTEVTVSS` high polyreactivity

Determine its reported polyreactivity (PSR sort gate): `QVQLVESGGGLVQAGGSLRLSCAASGSIFTLYAMGWYRQAPGKERELVAAINRSGGSTYYADSVKGRFTISRDNAKNTVYLQMNSVKPEATAVYYCNARQYTGRRYDYWGQGTQVTVSS` high polyreactivity

Determine its reported polyreactivity (PSR sort gate): `QVQLVESGGGLVQAGGSLRLSCAASGSTFFSNAMGWYRQAPGKERELVATIRVGGGSTYADSVKGRFTISRDNAKNTVYLQMNSLKPEDTADYYCAADDSDTRYTRSRYGYWGQGTQVTVSS` low polyreactivity

Determine its reported polyreactivity (PSR sort gate): `QVQLVESGGGLVQAGGSLRLSCAASGSTFDGNAMGWYRQAPGTERELVAAITSGGSTNYADSVKGRFTISRDNAKNTVYLQMNSLKPEDTAVYYCAADTVSFSILYDYWGQGTQVTVSS` low polyreactivity

* * *

Experiment Notes: yeast display, Sf9 membrane polyspecificity reagent, FACS + sequencing; frameworks hold sequencing errors
Assay Metric: polyreactivity (PSR sort gate)

Look over these answered cases.
Residue Codes	polyreactivity (PSR sort gate)
QVQIVESGGGLVQAGGSLRISCAPSGLTFGYYAMGWYRQAPGTERELVAAITYRGGSTYYADSVKGRFTISRDNAKNTVYLQMNSLKPEDTAVYYCATDYFYYDYWGQGTQVTVSS	low polyreactivity
QVQLVESGGGLVQAGGSLRLSCAASGIIFKGYAMGWYRQAPGKERELVAAISQSGGSTYYADSVKGRFTISRDNAKNTVYLQMNSLKPEDTAVYYCNARYSRVVPRYYYWGQGTQVTVSS	high polyreactivity
QVQLVESGGVLVQAGGSLRLSCAASGLIFKFYAMGWYRQAPGKERELVARISSSGGSTYYADSVKGRFTTSRDNAKNTVYLQMNSLKPEDTAVSYCAAGAYYVDRYARSSIFSYYYWGQATQVTVSS	high polyreactivity
QVQLVESGGGLVQAGGSLRLSCAASGFIRTAYAMGWYRQAPGKERELVAAIDWIGGSTYYADSVKGRFTISRDNAKNTVYLQMNSLKPEDTAVYYCAAVRYYWGQGTQVTVSS	low polyreactivity

Let us examine a further case.
Determine its reported polyreactivity (PSR sort gate): `QVQLVESGGGLVQAGGSLRLSCAASGSTFGRNAMGWYRQAPGKERELVAAISWRSTRTYYADSVKGRFTISRDNAKNTVYLQMNSLKPEDTAVYYCAAAWRIWWYHRGEFDYWGQGTQVTVSS` high polyreactivity
